test_protocol: Cytotoxicity against mouse RAW264.7 cells assessed as reduction in cell viability after 3 hrs by alamar blue assay
Format: cell-based

- compound: "COc1cc(O)c2c(=O)c(-c3ccc(O)cc3)coc2c1 [PRUNETIN]"
  CC50 at 3 h: "> 100 µM"
- compound: "COc1cc(O)c2c(c1)O[C@H](c1ccc(O)cc1)CC2=O [SAKURANETIN]"
  CC50 at 3 h: "> 100 µM"
- compound: "C=C[C@@]1(C)Cc2occ(C)c2[C@@H]2OC(=O)C(=C)[C@@H]21 [ISOLINDERALACTONE]"
  CC50 at 3 h: "66.4 µM"
- compound: "N=C(N)NN [PIMAGEDINE]"
  CC50 at 3 h: "> 100 µM"
- compound: "COc1cc2c([nH]c3ccc(O)cc32)c(Cc2ccc(O)cc2)n1 [DAIBUCARBOLINE A]"
  CC50 at 3 h: "94.8 µM"
- compound: "N=C(NCCC[C@H](N)C(=O)O)N[N+](=O)[O-] [NITROARGININE]"
  CC50 at 3 h: "> 100 µM"
